# TARGET_DESC: EGFR G724S T790M (Homo sapiens, UniProt P00533, G724S/T790M)
# Construct: expressed in transfected cells; host or cells: Ba/F3
# PROCEDURE_SUMMARY: Ba/F3 drug screening, Cell Titer Glo, IC50 Mut/WT
# Type: cell-based
# CONDITION_INFO: T790M-like-3R, 72 hours
List of ratio of IC50 for cells with mutant EGFR to IC50 for cells with wildtype EGFR (Mut/WT) values.
EXPERIMENTAL_READOUT: ratio of IC50 for cells with mutant EGFR to IC50 for cells with wildtype EGFR (Mut/WT)

1) Cc1cc(C(=O)Nc2nc3cccc(Cl)c3n2[C@@H]2CCCCN(C(=O)/C=C/CN(C)C)C2)ccn1
0.1867
2) C=CC(=O)Nc1cc(Nc2nccc(-n3cc(CN(C)C)c(-c4ccccc4)n3)n2)c(OC)cc1N1CCOCC1
26.17
3) C=CC(=O)Nc1cc(Nc2ncc(C(=O)OC(C)C)c(-c3cn(C)c4ccccc34)n2)c(OC)cc1N(C)CCN(C)C
48.31
